Entry source: PubChem BioAssay AID2060494

Test system: 435261-313-R-J1-PDC complex spheroid viability;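 also: spheroids exposed to the agents for seven days before readout; percent of vehicle control viability with DMSO wells as 100%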
Test: Anticancer human tumor 435261-313-R-J1-PDC patient-derived colon adenocarcinoma cell line growth inhibition [GQUAD]
Details: second compound 0.0316 µM; first compound 0.1 µM; hits give low values
READOUT: viability, T/C (%)

INSERT INTO assay_data (molecule, system_name, measured_number) VALUES
  ('C#Cc1c(F)ccc2cc(O)cc(-c3ncc4c(N5CC6CCC(C5)N6)nc(OCC56CCCN5CC(F)C6)nc4c3F)c12 (centres undefined) + Cc1[nH]c2ccc(F)cc2c1-c1nc2c3cccnc3c3ncccc3c2[nH]1', '435261-313-R-J1-PDC complex spheroid viability', 106),
  ('COc1cc(C2c3cc4c(cc3C(OC3OC5COC(C)OC5C(O)C3O)C3COC(=O)C23)OCO4)cc(OC)c1O (centres undefined) + Cc1cnc(CNC(=O)c2c(=O)c3ccc(N4CCCN(C)CC4)nc3n3c2sc2ccccc23)cn1', '435261-313-R-J1-PDC complex spheroid viability', 59.1),
  ('CC1COCCN1c1cc(C2(O)CC3CCC(C2)O3)c2cnn(-c3ccn[nH]3)c2n1 (centres undefined) + Cc1cnc(CNC(=O)c2c(=O)c3ccc(N4CCCN(C)CC4)nc3n3c2sc2ccccc23)cn1', '435261-313-R-J1-PDC complex spheroid viability', 48),
  ('COc1cccc2c1C(=O)c1c(O)c3c(c(O)c1C2=O)CC(O)(C(=O)CO)CC3OC1CC(N)C(O)C(C)O1 (centres undefined) + CN(C)c1ccc(Nc2c3ccc(NC(=O)CCN4CCCC4)cc3nc3cc(NC(=O)CCN4CCCC4)ccc23)cc1', '435261-313-R-J1-PDC complex spheroid viability', 71.2),
  ('C=CC(=O)N1CCN(c2nc(=O)n(-c3c(C)ccnc3C(C)C)c3nc(-c4c(O)cccc4F)c(F)cc23)C(C)C1 (centres undefined) + Cc1cnc(CNC(=O)c2c(=O)c3ccc(N4CCCN(C)CC4)nc3n3c2sc2ccccc23)cn1', '435261-313-R-J1-PDC complex spheroid viability', 59.5),
  ('CCCS(=O)(=O)Nc1ccc(F)c(C(=O)c2c[nH]c3ncc(-c4ccc(Cl)cc4)cc23)c1F + CN(C)c1ccc(Nc2c3ccc(NC(=O)CCN4CCCC4)cc3nc3cc(NC(=O)CCN4CCCC4)ccc23)cc1', '435261-313-R-J1-PDC complex spheroid viability', 110),
  ('COc1ccc([C@@H](O)c2cc(-c3ncnc4cc(N5CCOCC5)ccc34)c(F)cc2Cl)nn1 + Cc1[nH]c2ccc(F)cc2c1-c1nc2c3cccnc3c3ncccc3c2[nH]1', '435261-313-R-J1-PDC complex spheroid viability', 64.5),
  ('CC1COCCN1c1cc(C2(S(C)(=N)=O)CC2)nc(-c2ccnc3[nH]ccc23)n1 (centres undefined) + Cc1[nH]c2ccc(F)cc2c1-c1nc2c3cccnc3c3ncccc3c2[nH]1', '435261-313-R-J1-PDC complex spheroid viability', 85.9),
  ('COc1ccc([C@@H](O)c2cc(-c3ncnc4cc(N5CCOCC5)ccc34)c(F)cc2Cl)nn1 + CN(C)c1ccc(Nc2c3ccc(NC(=O)CCN4CCCC4)cc3nc3cc(NC(=O)CCN4CCCC4)ccc23)cc1', '435261-313-R-J1-PDC complex spheroid viability', 120);
